Reported pIC50 by item:
System: SGC-7901
experiment.summary: Cytotoxicity against human SGC7901 cells by MTT assay
Format: functional, cell-based
pIC50: −log10 of the molar value.

# compound, pIC50
measured = [
    ("CC1=C2C[C@@H]3[C@@](C)(C[C@@H]2OC1=O)[C@@H]1C[C@@H]1[C@]3(O)CO [CHLORAJAPOLIDE D]", "< 5.00"),
    ("CC1=C2[C@H](O)C3=C(C=O)[C@H]4C[C@H]4[C@]3(C)C[C@@H]2OC1=O [CHLORAJAPOLIDE A]", "< 5.00"),
    ("CC1=C2[C@@H]3O[C@H](O)C4=C3[C@@](C)(C[C@@H]2OC1=O)[C@@H]1C[C@H]41 [CHLORAJAPOLIDE B]", "< 5.00"),
]

All figures here come from ChEMBL document CHEMBL1667727.
